EXPERIMENTAL_TARGET: Sodium/glucose cotransporter 2 (Homo sapiens, UniProt P31639)
Sequence (P31639 whole entry): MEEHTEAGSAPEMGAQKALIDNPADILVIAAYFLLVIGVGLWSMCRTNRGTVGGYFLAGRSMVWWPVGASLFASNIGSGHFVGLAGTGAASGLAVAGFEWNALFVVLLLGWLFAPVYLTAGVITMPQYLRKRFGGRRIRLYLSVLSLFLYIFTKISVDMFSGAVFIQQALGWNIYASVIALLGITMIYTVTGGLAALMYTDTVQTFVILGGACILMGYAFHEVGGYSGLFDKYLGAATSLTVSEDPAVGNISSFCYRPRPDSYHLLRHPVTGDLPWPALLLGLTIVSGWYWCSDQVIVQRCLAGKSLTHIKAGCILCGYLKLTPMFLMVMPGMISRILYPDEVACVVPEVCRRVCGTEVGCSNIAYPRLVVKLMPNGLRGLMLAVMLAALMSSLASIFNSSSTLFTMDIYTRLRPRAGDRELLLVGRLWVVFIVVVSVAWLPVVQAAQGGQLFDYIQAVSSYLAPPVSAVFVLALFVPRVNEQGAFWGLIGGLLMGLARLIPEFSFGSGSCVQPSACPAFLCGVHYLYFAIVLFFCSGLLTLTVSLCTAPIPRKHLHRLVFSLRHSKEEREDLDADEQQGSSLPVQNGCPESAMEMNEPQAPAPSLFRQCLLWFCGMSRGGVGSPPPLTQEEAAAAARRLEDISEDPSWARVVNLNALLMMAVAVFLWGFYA
ASSAY_TEXT: Inhibition of human SGLT2 expressed in CHO cells assessed as [14C]-alpha-methyl-D-glucopyranoside uptake after 2 hrs by liquid scintillation counting
pIC50: −log10 of the molar value.
PARAMETER: pIC50

Below are worked cases with known answers.
MOLECULE | pIC50
OC[C@H]1O[C@@H](c2ccc(Cl)c(Cc3ncc(-c4ccco4)s3)c2)[C@H](O)[C@@H](O)[C@@H]1O | 9.14
CCCCCCCc1cnc(Cc2cc([C@@H]3O[C@H](CO)[C@@H](O)[C@H](O)[C@H]3O)ccc2Cl)s1 | 7.91
OC[C@H]1O[C@@H](c2ccc(F)c(Cc3ncc(-c4ccsc4)s3)c2)[C@H](O)[C@@H](O)[C@@H]1O | 8.13
OC[C@H]1O[C@@H](c2ccc(Cl)c(Cc3ncc(-c4cccs4)s3)c2)[C@H](O)[C@@H](O)[C@@H]1O | 8.94
N#Cc1ccc([C@@H]2O[C@H](CO)[C@@H](O)[C@H](O)[C@H]2O)cc1Cc1ncc(-c2ccsc2)s1 | 6.85

(a) OC[C@H]1O[C@@H](c2ccc(C(F)(F)F)c(Cc3ncc(-c4ccsc4)s3)c2)[C@H](O)[C@@H](O)[C@@H]1O
(b) OC[C@H]1O[C@@H](c2ccc(Cl)c(Cc3cnc(-c4ccsc4)s3)c2)[C@H](O)[C@@H](O)[C@@H]1O
(c) OC[C@H]1O[C@@H](c2ccc(Br)c(Cc3ncc(-c4ccsc4)s3)c2)[C@H](O)[C@@H](O)[C@@H]1O
Rank order required: pIC50, descending. Use the labels to give the ranking in the order requested. b, c, a
(b: 8.95, c: 8.20, a: 7.84)
